# System: RXF 393 renal
# testSummary: NCI tumour cell line growth inhibition, 48 h; in the data active = GI50 below about 0.43 µM; inactive = the rest
Hi! Could you answer with just one of these? active, inactive

QUERY: Please share the test call associated with COc1ccc(-c2cc(-c3cc(Cl)ccc3Cl)nc3[nH]c(-c4cc(F)c(Cl)cc4Cl)cc(=O)c23)cc1 .
RESULT: inactive

QUERY: Please indicate how the test categorized CC(C)(C)OC(=O)n1cc(CNC(=S)Nc2ccccc2)c2ccccc21 .
RESULT: inactive

QUERY: Entry COc1ccc(-c2nn(-c3cccc(Cl)c3)cc2C2CC(c3ccccc3)=NN2C(C)=O)cc1 (configuration not stated) : call = ?
RESULT: inactive

QUERY: For O=C(CCN1CCN(c2cnc3ccccc3n2)CC1)c1csc2ccccc12 , which call appears in the assay record?
RESULT: inactive

QUERY: Can you look up the reported call for Cc1cc([C@@H](C)Nc2ccccc2C(=O)O)c2nc(N3CCOCC3)cc(=O)n2c1 for me?
RESULT: active

Next:
QUERY: Query: recorded result category for COC(=O)C1OC(O[C@H]2CCC3(C)C(CCC4(C)C3CC=C3C5CC(C)(C)CCC5(C(=O)O)CC[C@]34C)C2(C)C)C(O)C(OC2OC(CO)C(O)C(O)C2O)C1O (some centres not stated) in this test
RESULT: inactive

QUERY: Which outcome did this test record for the compound Cc1nn(-c2ccc(S(=O)(=O)[O-])cc2)c([O-])c1N=[N+](C)c1ccc(-c2ccc(N=Nc3ccc4c(S(=O)(=O)[O-])cc(S(=O)(=O)[O-])c(N)c4c3[O-])c([O-])c2)cc1[O-].[Cu+2].[Cu+2].[Na+] ?
RESULT: inactive
